- Tested on: Vero E6 infected with SARS-CoV-2
- protocolDescription: morphology score (similarity to uninfected cells); higher = more like uninfected cells
- conditionDescription: 24 h
Recorded morphology score split into classes lo: < -0.01; med: ≥ -0.01 and < 0.1; hi: ≥ 0.1

Prompt: GET /class?item= CNC1CC(N)C(O)C(OC2OC(CO)C(O)C3OC4(OC(C(N)CO)C(O)C(O)C4O)OC23)C1O (configuration not stated) [Hygromycin B] (10 µM)
Completion: med

Prompt: Hey, which category is CNS(=O)(=O)Nc1nccc(Cc2c(C)c3ccc(Oc4ncccn4)cc3oc2=O)c1F (0.833333 µM) in, do you know?
Completion: lo

====

- Tested on: Vero E6 infected with SARS-CoV-2
- protocolDescription: morphology score (similarity to uninfected cells); higher = more like uninfected cells
- conditionDescription: 24 h
assayReadout: morphology score

The cases that follow already have their morphology score on record.
compound	testTarget	morphology score
O=C(NC(=O)c1c(F)cccc1Cl)NC1c2ccccc2-c2ccccc21 (10 µM)	Vero E6 infected with SARS-CoV-2	0.143
CC(C)n1nc(-c2cc3cc(O)ccc3[nH]2)c2c(N)ncnc21 (10 µM)	Vero E6 infected with SARS-CoV-2	-0.0614

Result for Cn1c(COc2ccc(CC3SC(=O)NC3=O)cc2)nc2ccccc2c1=O (stereo unspecified) [balaglitazone] (10 µM) , tested on Vero E6 infected with SARS-CoV-2, morphology score: -0.114

Param item: CC(C)(C)C(=O)OCC(=O)[C@H]1CC[C@H]2[C@@H]3CCC4=CC(=O)CC[C@]4(C)[C@H]3CC[C@]12C [desoxycorticosterone-pivalate] (10 µM) ; param system: Vero E6 infected with SARS-CoV-2; output morphology score: 0.123

Oc1cc(CNC(=S)/C=C/c2cc(O)c(O)c(Br)c2)cc(O)c1O (0.833333 µM) tested on Vero E6 infected with SARS-CoV-2 gave morphology score: 0.194

Field morphology score (system: Vero E6 infected with SARS-CoV-2) for entry Cn1c(=O)c2c(ncn2CCO)n(C)c1=O [etofylline] (10 µM) = 0.0956

====

- System: Vero E6 infected with SARS-CoV-2
- protocolDescription: morphology score (similarity to uninfected cells); higher = more like uninfected cells
- conditionDescription: 24 h
morphology score for assorted compounds

compound	assayReadout	measValue
Cc1c(C(=O)N2CCOc3ccc(-c4ccc(N)nc4)cc3C2)ccc(S(C)(=O)=O)c1F (0.833333 µM)	morphology score	-0.0918

Entry CCCN(C/C=C/I)C1CCc2cccc(O)c2C1 (stereo not drawn) [8-hydroxy-PIPAT] (10 µM) under Vero E6 infected with SARS-CoV-2 had morphology score of -0.0478

The reported Vero E6 infected with SARS-CoV-2 morphology score of COc1ccc2c(C)nc(Nc3nc(C)c(C)c(O)n3)nc2c1 [madrasin] (10 µM) is 0.0439

Given the compound COc1ccc2ccc(=O)oc2c1CC=C(C)C [osthol] (10 µM) and test system Vero E6 infected with SARS-CoV-2, the measured morphology score is 0.243

Note to self: morphology score of O=C1c2ccccc2CCC1CNCCc1ccc(O)cc1 (stereo not drawn) (10 µM) with Vero E6 infected with SARS-CoV-2 was 0.0149

Param item: O=C(O)CCCN1C(=O)c2cccc3cccc(c23)C1=O [isodibut] (10 µM) ; param system: Vero E6 infected with SARS-CoV-2; output morphology score: 0.205

Assay Vero E6 infected with SARS-CoV-2, sample N[C@@H](Cc1ccc(O)cc1)C(=O)NCC(=O)NCC(=O)O (10 µM) , morphology score read: -0.0946

Bench note, Vero E6 infected with SARS-CoV-2: Cc1ncc([N+](=O)[O-])n1CC(O)CN1CCOCC1 (stereo not drawn) [morinidazole] (10 µM) , morphology score reads 0.12
